# measurement protocol: Single dose kinetics in beagle dogs
# Assay type: in vivo
# condition info: female, dog, plasma, IV, 4:1 PEG400:Water, 0.67 mg/kg, Fasted
property measured: AUC(0-inf) (ng·h/mL)
# value in ng·h/mL; strip the unit string

Give its AUC(0-inf) value. Item: CCOc1ccc(-c2ccc(Cn3c(CC(C)(C)C(=O)[O-])c(SC(C)(C)C)c4cc(OCc5ccc(C)cn5)ccc43)cc2)cn1.[Na+] [Compound 2]
17600

----------
# Tested on: production of LTB4 after ionophore stimulation in washed human leukocytes
# measurement protocol: LTB4 inhibition in washed human leukocytes
# Format: cell-based
# condition info: Leukocyte, mean of 4 tests
property measured: pIC50
pIC50 field: float, defined as -log10 of concentration (mol/L).

Give its pIC50 value. Item: CCOc1ccc(-c2ccc(Cn3c(CC(C)(C)C(=O)[O-])c(SC(C)(C)C)c4cc(OCc5ccc(C)cn5)ccc43)cc2)cn1.[Na+] [Compound 2]
9.36

Data provenance is patent US20110160249A1.
